Recorded IC50 values for a group of binders are listed next.
- Test System: T1, Recombinant human TSLPR-Fc (human, UniProt Q9HC73 23-231)
- T1 construct: also called recombinant human soluble TSLPR-Fc fusion protein; not shown: Fc part
- T1 sequence: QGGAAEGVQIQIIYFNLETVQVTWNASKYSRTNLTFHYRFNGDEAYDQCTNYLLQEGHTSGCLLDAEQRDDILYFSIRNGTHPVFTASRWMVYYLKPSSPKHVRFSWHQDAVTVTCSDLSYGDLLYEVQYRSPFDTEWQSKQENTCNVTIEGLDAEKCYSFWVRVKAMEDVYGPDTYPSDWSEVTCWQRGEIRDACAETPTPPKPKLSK
- Procedure Text: blocking ELISA: antibody on coated TSLPR-Fc, then TSLP + IL7Rα-Fc; TSLP binding detected
Express your answer in µg/mL, writing the number without its unit.

1D6.C9 (WO2007/112146) (antibody, from another filing, V domains shown) VH: QIQLGQSGPELKKPGETVKISCKASGYTFTTYGMSWVKQAPGKGLQWMGWINTYSGVPRYADDFKGRFAFSLETSASTAYLQIYNLKNEDTATYFCTREGFITTVVGAAGRFVYWGQGTLVTVSA VL: DIVMTQSHKFMSTSVGDRVSITCKASQDVGTAVAWYQQKPGQSPKLLIYWASTRHTGVPDRFTGSGSGTDFTLTLNNVQSEDLADYFCQQYSTYPTFGSGTKLELKR    0.0152

Continue with the next binder.
Form field IC50, entry TSLPR-012_166, CDR grafted (antibody, V domains shown, Humanized (CDR grafted) variant of hamster TSLPR-012; human kappa and human IgG1 or IgG4(S228P,L235E) appear only as embodiments) VH: QVQLQESGPGLVKPSQTLSLTCTVSGFSITTSGYYWSWIRQHPGKGLEWIGYIGYNSKTYYSPSLKSRVTISRDTSKNQFSLKLSSVTAADTAVYYCARSLYGGYKDAFDSWGQGTLVTVSS VL: DIQMTQSPSSLSASVGDRVTITCRASQSIGTSLHWYQHRPGETPKLLIKFASRSISGVPSRFSGSGSGTDFTLTISSLQPEDFATYYCQQSPGFPPTFGQGTKLEIKR : 0.0122
